# System: SK-MEL-28 melanoma
# run-description: NCI tumour cell line growth inhibition, 48 h; in the data active = GI50 below about 0.43 µM; inactive = the rest
Possible outcomes: YES for active, NO for inactive

molecule: O=C1OCC2=C1C(c1ccccc1)c1cc3c(cc1N2)OCO3 (stereo not drawn)
class-label: YES
//
molecule: O=[N+]([O-])c1ccc(C=Cc2ccccc2)cc1.[C-]#[O+].[C-]#[O+].[C-]#[O+].[Cr]
class-label: NO
//
molecule: CO/N=C(/C)c1ccc(NC(=O)CSc2nnc(-c3ccncc3)n2-c2ccccc2)cc1
class-label: NO
//
molecule: O=C1c2c(c3c4ccccc4[nH]c3c3ccc4ccccc4c23)C(=O)N1CCN1CCNCC1
class-label: NO
//
molecule: CC(C)C[C@H](NC(=O)CNC(=O)c1cc(Cl)ccc1Cl)B1OC(=O)CC(CC(=O)O)(C(=O)O)O1 (stereo partly drawn)
class-label: YES
//
molecule: CO/N=C(\COc1ccc2c(c1)[nH]c1ccccc12)c1ccc(F)cc1
class-label: NO
//
molecule: CCCCCCCCCCCCCCCCCC1=NCCN1CCOC1=C(Cl)C(=O)c2ccccc2C1=O
class-label: NO
//
molecule: O=C1CCC(N2Cc3cc(CNC(=O)C(F)(F)c4ccc(Cl)cc4)ccc3C2=O)C(=O)N1 (stereo not drawn)
class-label: NO

====

# Test system: SK-MEL-2 melanoma
# run-description: NCI tumour cell line growth inhibition, 48 h
Each entry below carries its reported TGI.
metric: TGI (µM)

molecule: COc1cccc(NC(=O)CSc2nnc(-c3ccc(NC(C)=O)cc3)o2)c1
limit-sign: >
measured-result: 100

molecule: O=C(O)c1ccc(C(=O)c2ccccc2)c(C(=O)O)c1
limit-sign: >
measured-result: 100

molecule: O=C1/C(=C/c2ccccc2[N+](=O)[O-])Cc2ccccc21
limit-sign: =
measured-result: 19.7

molecule: CCN(CC)CC1CCCCN1CC(=O)N1c2ccccc2C(=O)Nc2cccnc21 (configuration not stated)
limit-sign: >
measured-result: 100

molecule: COc1cccc(OC)c1C(=O)OCc1ccccc1
limit-sign: >
measured-result: 100

molecule: COc1ccc(C(=O)/C=C/c2ccc(O)c(O)c2)c(OC)c1
limit-sign: =
measured-result: 9.82

molecule: Cc1ccc(/C=C/C(=O)C(C)(C)CN2CCCCC2)cc1
limit-sign: =
measured-result: 23.4

====

# Test system: DU-145 prostate
# run-description: NCI tumour cell line growth inhibition, 48 h
Where a SMILES comes first, the peptide text is derived from it. [ ]: non-standard residue; d: D form. The star is where a group is joined. NMeV = CN[C@H](C(=O)O)C(C)C; X29 = COc1ccc(CN*)c(OC)c1; Octanoyl = CCCCCCCC(=O)*; dNMeA = CN[C@H](C)C(=O)O
// reported TGI per item

compound: C/C(=N\Nc1ccc([N+](=O)[O-])cc1[N+](=O)[O-])c1sc(-n2nc(-c3ccccc3)cc2-c2ccccc2)nc1C
limit-sign: >
TGI [µM]: 100
--
compound: COc1cc2c3c(c1)CCCN3CCC2
limit-sign: >
TGI [µM]: 10
--
compound: CCOC(=O)C1=NOC2(C=C(Br)C(=O)C(Br)=C2)C1
limit-sign: =
TGI [µM]: 17.8
--
compound: O=C(NN1C(=O)CSC12CCCCC2)c1[nH]c2ccc(Br)cc2c1-c1ccccc1
limit-sign: =
TGI [µM]: 38.8
--
compound: CCOc1ccccc1C(=O)N1CCN(c2cc(Cl)cc(Cl)c2)CC1
limit-sign: =
TGI [µM]: 14
--
compound: N#CC1C(=O)NC23CCCCC2C1c1ccccc1O3 (stereo not given)
limit-sign: >
TGI [µM]: 100
--
compound: CNC(=O)C1(N)c2ccccc2C=Cc2ccccc21
limit-sign: >
TGI [µM]: 100
--
compound: COc1ccc(-c2cc(-c3ccc(C)cc3)nc3nc(=S)[nH]c(N)c23)cc1
limit-sign: =
TGI [µM]: 75.5
--
compound: O=c1ssc(=Nc2ccccc2)n1-c1ccccc1
limit-sign: =
TGI [µM]: 39.9
--
compound: COc1cc(C2SCC(=O)N2c2cccc(Cl)c2)cc(OC)c1OC (stereo not given)
limit-sign: >
TGI [µM]: 100
--
compound: CCOC(=O)/C(C=Nc1c(C)n(C)n(-c2ccccc2)c1=O)=C(/C)O
limit-sign: >
TGI [µM]: 100
--
compound: C[C@]12CC[C@@H]3c4cc(OCC(F)(F)F)c(O)cc4CC[C@H]3[C@@H]1CC[C@@H]2O
limit-sign: =
TGI [µM]: 29.4
--
compound: CCC(CCCN)Nc1cc(OC)cc2c(C)ccnc12 (stereo not given)
limit-sign: =
TGI [µM]: 35.5
--
compound: O=C(/C=C/c1ccccc1)CCN1CCOCC1
limit-sign: =
TGI [µM]: 40.4
--
compound: O=C1c2c(c3c4ccccc4[nH]c3c3ccc4ccccc4c23)C(=O)N1CCN1CCNCC1
limit-sign: =
TGI [µM]: 3.25
--
compound: Nc1nc(OCc2ccccc2)c2[nH]cnc2n1
limit-sign: =
TGI [µM]: 266
--
compound: CN(C)CCCn1c(=O)c2ccccc2c2ccccc21
limit-sign: =
TGI [µM]: 52
--
compound: CCCCCCCC(=O)N[C@H](C(=O)N[C@H](C(=O)N(C)[C@H](C(=O)N1CCC[C@H]1C(=O)N(C)[C@H](C)C(=O)NCc1ccc(OC)cc1OC)C(C)C)C(C)C)C(C)C (Octanoyl-VV[NMeV]P[dNMeA]-X29)
limit-sign: >
TGI [µM]: 100
--
compound: Cc1cc(S(=O)(=O)Nc2nc3ccccc3nc2-c2cccc([N+](=O)[O-])c2)c(S)cc1Cl
limit-sign: =
TGI [µM]: 36.8
--
compound: OCCNCCN1CCN(CCCN2c3ccccc3Sc3ccc(C(F)(F)F)cc32)CC1
limit-sign: >
TGI [µM]: 100
--
compound: O=c1[nH]c(=O)n(C2CC(O)C(COP(=O)(OCc3ccc([N+](=O)[O-])o3)N(CCCCCl)CC(O)CO)O2)cc1F (stereo not given)
limit-sign: >
TGI [µM]: 34.8
--
compound: O=C(OCc1ccc2ccccc2n1)c1cn(C2CC2)c2cc(N3CCN(Cc4ccc5ccccc5n4)CC3)c(F)cc2c1=O
limit-sign: >
TGI [µM]: 100
--
compound: O=C(O)C12C3CCC(CC3)C1(C(=O)O)C1CCC2C1 (stereo not given)
limit-sign: >
TGI [µM]: 100
--
compound: O=C1CCC(N2Cc3cc(CNC(=O)C(F)(F)c4ccc(Cl)cc4)ccc3C2=O)C(=O)N1 (stereo not given)
limit-sign: >
TGI [µM]: 100
--
compound: CCOC(=O)C1C(c2ccc3c(c2)OCO3)c2c([nH][nH]c2=O)CC1(C)O (stereo not given)
limit-sign: >
TGI [µM]: 100
--
compound: O=C1/C(=C/c2ccccc2[N+](=O)[O-])Cc2ccccc21
limit-sign: =
TGI [µM]: 3.51
--
compound: COc1ccc2cc1Oc1ccc(cc1)C[C@H]1c3c(cc4c(c3Oc3cc5c(cc3OC)CCN(C)[C@@H]5C2)OCO4)CCN1C
limit-sign: =
TGI [µM]: 17.8
--
compound: Cn1c(=O)c2c(nc3n2CC(=O)N3CCCCl)n(C)c1=O
limit-sign: >
TGI [µM]: 100
--
compound: N#Cc1sc2c(c1OC(=O)c1ccccc1)c(=O)n(-c1ccccc1)c(=S)n2-c1ccccc1
limit-sign: >
TGI [µM]: 100
--
compound: COc1ccc(-c2[nH]c3ccccc3c2-c2ccc(OC)cc2)cc1
limit-sign: =
TGI [µM]: 11.4
--
compound: OCC12C3C4C5C3C1C5C42 (stereo not given)
limit-sign: >
TGI [µM]: 100
--
compound: CC(C)(C)OC(=O)NC(Cc1ccccc1)OCc1ccccc1 (stereo not given)
limit-sign: =
TGI [µM]: 39.6
--
compound: C=CCN1C(=O)/C(=C/c2cccs2)N=C1SC/C=C/C
limit-sign: >
TGI [µM]: 100
--
compound: CCN(CC)CC1CCCCN1CC(=O)N1c2ccccc2C(=O)Nc2cccnc21 (stereo not given)
limit-sign: >
TGI [µM]: 100
--
compound: NCCSS(=O)(=O)CCN
limit-sign: >
TGI [µM]: 100
--
compound: CC(=O)C1C(=O)C(=O)N(c2cccc([N+](=O)[O-])c2)C1=O (stereo not given)
limit-sign: >
TGI [µM]: 100
--
compound: Cc1cc(C)c(-n2[nH]c(=O)n(C)c2=O)c(C)c1
limit-sign: >
TGI [µM]: 100
--
compound: CN[C@@H](C)C(=O)N[C@H](C(=O)N1CCC[C@H]1C(=O)Nc1sc(-c2ncco2)nc1-c1ccccc1)C1CCCCC1
limit-sign: >
TGI [µM]: 100
--
compound: C[n+]1ccc(/C2=C3\C=CC(=N3)/C(c3cc[n+](C)cc3)=c3/cc/c([nH]3)=C(\c3cc[n+](C)cc3)C3=N/C(=C(/c4cc[n+](C)cc4)C4C=CC2N4)C=C3)cc1
limit-sign: >
TGI [µM]: 100
--
compound: NC(CSC1c2ccccc2-c2ccccc21)C(=O)O (stereo not given)
limit-sign: >
TGI [µM]: 100
